PROTOCOL: soluble on expression in E. coli; label from the status in PepcDB or PDB records

{"BIOPOLYMER SEQUENCE": "RSTIGAGQKVNVEFVSANPTGPMHVGHVRGAVVGDALARLLAYAGWNVTREYYINDGGAQVDVLARSAFERYREAHGLEPEIREGLYPGDYLIPVGEALKAKYGDSLLDKGEQHWLTEVREFATEMMMQMIREDLAALGVEMDVYSSEKALYGTGKIEAALDRLKEMDLIYEGVLEPPKGKTPEDWEPREQTLFRSTAHGDDVDRPVKKSDGSWTYFAPDIAYHYDKVTRGFDQLIDIFGADHGGYVKRMKAAVAALSAGRVPLDIKLIQLVKLWKNGEPFKMSKRAGTYVTLRDVVEQVGTDVTRFVMLTRKNDATLDFDFDKVLEQSKENPVFYVQYANARINSVLRKAREQGMDVSDA", "soluble on expression in E. coli": "not soluble"}
{"BIOPOLYMER SEQUENCE": "MSLSRCLPLGQNARVIIIPARLAHAASTQAAAATDDAPNFFQKLAHRFQGVPLKGEAHAPKSMFEDCNKEWSAPEPLPAIPKDFKEHPDRDLVNYPYPARPMYPPKSRLLMMPDSWFTPFQKVTGVSGPYLFFGGLFAFLVNKELWVFEEQGHMTVGWILFYLLVTRTAGYKIDQGLYNGYQERVNFFKGLIQEDLKEAVEFKKTSAKQTESLNSIKESYPTALKESMALQLEATYRKNVQSVATELKRRIDYLKETEESKARVEREQLLKLINSEVDKEFSDRSFKDKYLQNAIQQLKGLNVQL", "soluble on expression in E. coli": "not soluble"}
{"BIOPOLYMER SEQUENCE": "MGSDKIHHHHHHMASPTVRRRQLSAILREMRKASGLSLDAVAARLEWSRAKVGHIETGQRKKPSVLEVKALMAEYGVTPEDPRYETVLMLTRQAQARGWWRRYDDLFPGSYIELEAEASEIRTYEAFVVPGLLQTPGYTRLLQQARLDRDPDDVERAVESRRKRQEIFDRTSPPAVYAIIEEHALERLRGTPDVLAEQVAHLLHMAGRNSVTLQVLRTRVGVHAGAMGPFVILDFPEPASPVVYLETYTDGLFLERREEIDQYRSLWDRIRDAALPPDRTVEFLRSLLTL", "soluble on expression in E. coli": "not soluble"}

====

PROTOCOL: soluble on expression in E. coli; label from the status in PepcDB or PDB records
READOUT KIND: soluble on expression in E. coli

{"BIOPOLYMER SEQUENCE": "MTRSRLKIDRHGKEEDAMDLIDTHQHLILRGKLGYAWTRGEPSLAGSFTRADYAALVEGSGVIGTIFMETGVDDGDYRAEARLVAGMVGEGTLPMFGQIASCRPETDQGFDAWLEECRHLKVVGFRRILQVMPDDTSRAENYRRNVRKIGKAGWPVDLCFHSRQLAIAAELVRACPDVRFMLDHCGTPDIAGNDFPAWSERMADLASLPNLFVKLSGVTAYCAPGQVTLESVRPYVETVLKLFGPARMVWGGDWPVVDLGSGLPEWIAMTREFLSTLSPDEQASIGHGNARRFYLATLEHHHHHH", "READOUT KIND": "soluble on expression in E. coli", "ENDPOINT RESULT": "not soluble"}
{"BIOPOLYMER SEQUENCE": "MASLATSISGSFRILVKSSSTRNGFPVISDQNPSFVLFANKRRHISRTAIFHRSAISGSSQGEKISPLASGVSSGLYSAQTFDLTPQNVDLVLEDVRPFLISDGGNVDVVSVEDGVVSLKLQGACTSCPSSSTTMTMGIERVLKEKFGDALKDIRQVFDEEVKQITVEVSEASF", "READOUT KIND": "soluble on expression in E. coli", "ENDPOINT RESULT": "not soluble"}
